Source listed as ChEMBL document CHEMBL4321872.

Reported values of pEC50 for individual entries
SYSTEM_UNDER_TEST: Oxytocin receptor (Homo sapiens)
Sequence (P30559 whole entry): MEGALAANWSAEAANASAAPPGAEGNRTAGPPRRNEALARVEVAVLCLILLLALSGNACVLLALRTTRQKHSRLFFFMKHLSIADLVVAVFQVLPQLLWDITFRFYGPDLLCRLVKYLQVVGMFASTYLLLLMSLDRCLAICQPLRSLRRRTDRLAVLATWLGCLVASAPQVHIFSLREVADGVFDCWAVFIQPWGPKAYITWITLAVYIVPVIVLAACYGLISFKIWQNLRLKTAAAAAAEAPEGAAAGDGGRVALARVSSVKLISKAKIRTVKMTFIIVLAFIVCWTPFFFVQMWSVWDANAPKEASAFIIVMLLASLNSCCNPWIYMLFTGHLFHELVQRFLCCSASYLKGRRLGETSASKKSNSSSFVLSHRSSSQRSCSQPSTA
ASSAY_OVERVIEW: Agonist activity at recombinant human Gi/Go-coupled OTR expressed in CHOK1 cells assessed as induction of beta-arrestin recruitment measured after 90 mins in absence of 10% FBS by pathhunter assay
Type: cell-based
pEC50: −log10 of the molar value. Numbered stars: 1 amine (or outer) side, 2 acyl side, 3 side chain; on linkers, the order of the positions; unused ones are H or OH. Bridge positions count the residues as written; N and C are the ends. Square brackets hold non-standard residues; d marks the D form. Peptide text beside a SMILES is read from it. * marks the point of attachment. X1 = O=C(O)CCCCCCCCCCCCCCCCC(=O)N[C@@H](CCCCNC(=O)CCOCCOCCNC(=O)CCOCCOCCNC(=O)C*)C(=O)O; X4 = O=C(O)CCCCCCCCCCCCCCCCC(=O)NCCOCCOCCOCCNC(=O)C*; X3 = CCCCCCCCCCCCCC(=O)NCCOCCOCCNC(=O)C*; X2 = O=C(CCC[*:2])[*:1]; Sar = CNCC(=O)O
EXPERIMENTAL_ENDPOINT: pEC50

molecule="CC[C@H](C)[C@@H]1NC(=O)[C@H](Cc2ccc(O)cc2)NC(=O)CCCSC[C@@H](C(=O)NCC(=O)N[C@@H](CSCC(=O)NCCOCCOCCOCCNC(=O)CCCCCCCCCCCCCCCCC(=O)O)C(=O)NCC(N)=O)NC(=O)[C@H](CC(N)=O)NC(=O)[C@H](CCC(N)=O)NC1=O (YIQNCGC(X4)G-NH2; linker N-5 via X2)" system_under_test="Oxytocin receptor (Homo sapiens)" readout_number=8.47
molecule="CCCCCCCCCCCCCC(=O)NCCOCCOCCNC(=O)CSC[C@H](NC(=O)CNC(=O)[C@@H]1CSCCCC(=O)N[C@@H](Cc2ccc(O)cc2)C(=O)N[C@@H]([C@@H](C)CC)C(=O)N[C@@H](CCC(N)=O)C(=O)N[C@@H](CC(N)=O)C(=O)N1)C(=O)NCC(N)=O (YIQNCGC(X3)G-NH2; linker N-5 via X2)" system_under_test="Oxytocin receptor (Homo sapiens)" readout_number=8.28
molecule="CC[C@H](C)[C@@H]1NC(=O)[C@H](Cc2ccc(O)cc2)NC(=O)CCCSC[C@@H](C(=O)NCC(=O)N[C@@H](CSCC(=O)NCCOCCOCCC(=O)NCCOCCOCCC(=O)NCCCC[C@H](NC(=O)CCCCCCCCCCCCCCCCC(=O)O)C(=O)O)C(=O)N(C)CC(N)=O)NC(=O)[C@H](CC(N)=O)NC(=O)[C@H](CCC(N)=O)NC1=O (YIQNCGC(X1)[Sar]-NH2; linker N-5 via X2)" system_under_test="Oxytocin receptor (Homo sapiens)" readout_number=7.18
molecule="CC[C@H](C)[C@@H]1NC(=O)[C@H](Cc2ccc(O)cc2)NC(=O)CCCSC[C@@H](C(=O)NCC(=O)N[C@@H](CSCC(=O)NCCOCCOCCOCCNC(=O)CCCCCCCCCCCCCCCCC(=O)O)C(=O)N(C)CC(N)=O)NC(=O)[C@H](CC(N)=O)NC(=O)[C@H](CCC(N)=O)NC1=O (YIQNCGC(X4)[Sar]-NH2; linker N-5 via X2)" system_under_test="Oxytocin receptor (Homo sapiens)" readout_number=7.28
